Biological target: T1, cytochrome c (UniProt P99999 2-105)
T1 construct: cytochrome c (Cc), a hemeprotein; Carries a heme group; the reduced form was used in ITC and NMR relaxation; 15N-labelled for the NMR titrations; Expression and purification are in the Supporting Information Appendix; also called Cc; hemeprotein Cc; source: details in the Supporting Information
T1 sequence (P99999 2-105): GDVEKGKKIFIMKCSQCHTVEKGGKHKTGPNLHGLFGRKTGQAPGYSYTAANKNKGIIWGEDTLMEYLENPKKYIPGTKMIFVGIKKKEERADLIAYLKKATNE
Assay: ITC; 1 mM peptide titrated onto 110 or 150 µM reduced Cc; 10 mM sodium phosphate pH 6.3; single binding-site model
Conditions: both partners purified
pKd: −log10 of the molar value.
Quantity name: pKd

P. EEERGQKRKRETEDEGEDDD (also called single mutant; source: synthetic peptide (Genecust, France)) [ANP32A_(230-249) P241T peptide]
Q. EEGGKGEKRKRETDDEGEDD (also called ANP32B peptide; source: synthetic peptide (Genecust, France)) [ANP32B_(232-251) peptide]
Please tell me which of the two, P or Q , has the higher reported pKd value. Please respond with the label that marks your chosen entry. P

a. EEERGEKRKRETEDEGEDDD (also called double mutant; source: synthetic peptide (Genecust, France)) [ANP32A_(230-249) Q235E/P241T peptide]
b. EEERGQKRKREPEDEGEDDD (also called ANP32A peptide; NLS-containing peptide; source: synthetic peptide (Genecust, France)) [ANP32A_(230-249) peptide]
Please tell me which of the two, a or b , has the higher reported pKd value. Please respond with the label that marks your chosen entry. b
